Source of measurements: patent US8618300B2

Molecular target: recombinant human FLAP protein (Homo sapiens)
Sequence (P20292 1-161): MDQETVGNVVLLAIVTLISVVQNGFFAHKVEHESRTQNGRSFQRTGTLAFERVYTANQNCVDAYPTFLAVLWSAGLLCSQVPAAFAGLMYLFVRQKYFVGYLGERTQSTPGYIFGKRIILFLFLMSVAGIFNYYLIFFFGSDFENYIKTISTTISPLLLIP
Test: FLAP binding assay, Scintillation Proximity Assay, displacement of [125I]L-691,831
Conditions: read-out: hFLAP binding IC50
pIC50: −log10 of the molar value.
measured-metric: pIC50

Cc1nc(COc2ccc3c(C(=O)c4ccc(Cl)cc4)c(CC(C)(C)C(=O)O)c(C(=O)C(C)(C)C)n3c2)cs1    7.42
CC(C)(C)C(=O)c1c(CC(C)(C)C(=O)O)c(C(=O)c2ccc(Cl)cc2)n2ccc(OCc3ccc4ccccc4n3)cc12    8.10
COc1ccc(-c2ccc(C(=O)c3c(CC(C)(C)C(=O)O)c(C(=O)C(C)(C)C)c4cc(C(C)C)ccn34)cc2)cn1    6.63
Cc1cccc(COc2ccn3c(C(=O)c4ccc(Cl)c(Cl)c4)c(CC(C)(C)C(=O)O)c(C(=O)C(C)(C)C)c3c2)n1    9.00
CC(C)(C)C(=O)c1c(CC(C)(C)C(=O)O)c(C(=O)c2ccc(Cl)cc2)n2ccc(OCc3cscn3)cc12    6.93

A. CC(C)(C)C(=O)c1c(CC(C)(C)C(=O)O)c(C(=O)c2ccc(Cl)cc2)n2ccc(OCc3ncccn3)cc12
B. COc1ccc(C(=O)c2c(CC(C(=O)O)C(C)C)c(C(=O)C(C)(C)C)c3cc(OCc4cccc(C)n4)ccn23)cc1 (stereo not drawn)
C. CC(C)(C)C(=O)c1c(CC(C)(C)C(=O)O)c(C(=O)c2ccc(Cl)cc2)c2ccc(OCc3ccc4ccccc4n3)cn12
Input: Please list the entries, largest pIC50 first. Put the labels in the requested order and write them down.
Output: B, C, A
(B: 8.52, C: 7.85, A: 7.19)

* * *

Target: recombinant human FLAP protein (Homo sapiens, UniProt P20292)
Test: FLAP binding assay, Scintillation Proximity Assay, displacement of [125I]L-691,831
Conditions: read-out: hFLAP binding IC50
pIC50: −log10 of the molar value.
measured-metric: pIC50

COc1ccc(C(=O)c2c(CC(C(=O)O)C(C)C)c(C(=O)C(C)(C)C)c3cc(OCc4csc(C)n4)ccn23)cc1 (stereo not shown)    7.89

a. COc1nc(COc2ccn3c(C(=O)c4ccc(Cl)cc4)c(CC(C)(C)C(=O)O)c(C(=O)C(C)(C)C)c3c2)cs1
b. Cc1nc(COc2ccn3c(C(=O)c4ccc(Cl)cc4)c(CC(C)(C)C(=O)O)c(C(=O)C(C)(C)C)c3c2)cs1
c. Cc1csc(COc2ccn3c(C(=O)c4ccc(Cl)c(Cl)c4)c(CC(C)(C)C(=O)O)c(C(=O)C(C)(C)C)c3c2)n1
d. COc1ccc(C(=O)c2c(CC(C)(C)C(N)=O)c(C(=O)C(C)(C)C)c3cc(OCc4cccc(N)n4)ccn23)cc1
Input: Please list the entries, largest pIC50 first. Put the labels in the requested order and write them down.
Output: c, d, b, a

1. COc1c(C)cnc(COc2ccn3c(C(=O)c4ccc(Cl)cc4)c(CC(C)(C)C(=O)O)c(C(=O)C(C)(C)C)c3c2)c1C
2. Cc1csc(COc2ccn3c(C(=O)c4cccc(Cl)c4)c(CC(C)(C)C(=O)O)c(C(=O)C(C)(C)C)c3c2)n1
Input: Param metric = pIC50; output whichever of 1 , 2 has the minimum value. Returns: label corresponding to the selected item.
Output: 1
